As shown below, each of these compounds has a reported z-score value.
# method: E. coli growth modulation, two-sided OD650, primary screen, E. coli filamentation project, strain DRC41, 24 h (AID 1093);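 note: MC1000 strain lacking acrAB efflux and sulA so SOS filamentation is blocked; test concentration not given here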
# conditionDescription: OD650, 24 h, higher = more signal, called active from +8 up or from −8 down
measurementLabel: z-score

| compound | measurementLabel | recordedResult |
| --- | --- | --- |
| O=C1[C@H]2[C@H]3[C@H](O)[C@H](O)CC(=NOC[C@@H](O)COCc4ccco4)[C@@H]3CC[C@H]2C(=O)N1C1CCCCC1 | z-score | 0.61 |
| COc1ccc(O[C@H]2C=C[C@@H](c3ccccc3)O[C@@H]2COC(=O)NCc2cccc3ccccc23)cc1 | z-score | -0.477 |
| C=CCOCC1CN2[C@@H](CC[C@@H](C)[C@@H]2c2ccc(Br)cc2)C(=O)O1 (some centres undefined) | z-score | 0.415 |
| CCc1cc2c(nc1CC)CCN(CCC(C)=NOCC[C@@H]1C=C[C@H](OC(C)=O)[C@@H](COC(C)=O)O1)C2 | z-score | 0.956 |

Source: PubChem BioAssay
